# PROTOCOL_DESCRIPTION: In vitro inhibition of N8-Acetylspermidine deacetylase from rat liver cytosol(apparent Ki)
# EXPERIMENTAL_CONDITIONS: read-out: Ki app
pKi: −log10 of the molar value.
ENDPOINT: pKi

Previously resolved entries follow.
> print(dat)
                              compound  readout.number
1                         NCCCCCC(=O)O            4.30
2  CCN1C(=O)C=CC1=O [N-ETHYLMALEIMIDE]            3.07
3                          NCCCCC(=O)O            2.39

[I] CCCC(=O)[O-].[Na+] [SODIUM BUTYRATE]
[II] c1cnc2c(c1)ccc1cccnc12
Which record shows the lower pKi: the first, I , or the second, II ? Your choice should be expressed through its label.
I
(I: 1.41, II: 2.89)

[P] CC(=O)NCCCCN
[Q] NCCCNCCCCCC(=O)NO
// which entry has the larger pKi value, P or Q ? Reply with the label of the item you choose.
Q
(Q: 9.00, P: 3.10)

====

# PROTOCOL_DESCRIPTION: In vitro inhibition of N8-Acetylspermidine deacetylase from rat liver cytosol
# EXPERIMENTAL_CONDITIONS: read-out: Ki app
ENDPOINT: Ki (µM)

[P] O=C(O)CN(CCN(CC(=O)O)CC(=O)O)CC(=O)O [EDETIC ACID]
[Q] c1ccc(-c2ccccn2)nc1 [DIPYRIDYL]
[R] NCCCNCCCCCC(=O)O
// ascending sort on recorded Ki Please write the labels in the order that was asked for.
R, Q, P
(R: 11 µM, Q: 1900 µM, P: 3500 µM)

Ref: ChEMBL document CHEMBL1125463
